# Tested on: HT29 cells
# measurement.protocol: Proliferation / cell survival assay (CellTiterGlo, 72 hour)
# Assay type: cell-based
# cond: HT29 proliferation, class symbols; read-out: HT29 IC50
# Procedure: In vitro studies of variety of tumor cells lines with prevalent mutations in RAS/RAF genes were performed for anti-proliferative activity (functional assay). This was compared with wild type cell line for selectivity. […] Proliferation assay was done by plating 2,000 cells/well in 100 μL of DMEM/10% FBS or RPMI/10% media in a 96-well plate and incubated overnight at 37° C. in a humidified, 5% CO2 incubator. […] IC50s were calculated using SoftMax software.

| compound | IC50 |
| --- | --- |
| O=S1(=O)Nc2c(cc(F)c(F)c2Nc2ccc(I)cc2F)OCC(O)C(O)CC12CC2 (single isomer, unassigned) | < 100 nM |
